Every entry's value here was drawn from patent US12559506B2.

Provide the recorded Dmax for the entries that follow.
SYSTEM: LRRK2 (endogenous, HiBit tagged) (Homo sapiens, UniProt Q5S007)
Construct: endogenous in cells; host or cells: HEK293 cells with HiBit knock-in at the endogenous LRRK2 locus, stably expressing firefly luciferase
Sequence (Q5S007 whole entry): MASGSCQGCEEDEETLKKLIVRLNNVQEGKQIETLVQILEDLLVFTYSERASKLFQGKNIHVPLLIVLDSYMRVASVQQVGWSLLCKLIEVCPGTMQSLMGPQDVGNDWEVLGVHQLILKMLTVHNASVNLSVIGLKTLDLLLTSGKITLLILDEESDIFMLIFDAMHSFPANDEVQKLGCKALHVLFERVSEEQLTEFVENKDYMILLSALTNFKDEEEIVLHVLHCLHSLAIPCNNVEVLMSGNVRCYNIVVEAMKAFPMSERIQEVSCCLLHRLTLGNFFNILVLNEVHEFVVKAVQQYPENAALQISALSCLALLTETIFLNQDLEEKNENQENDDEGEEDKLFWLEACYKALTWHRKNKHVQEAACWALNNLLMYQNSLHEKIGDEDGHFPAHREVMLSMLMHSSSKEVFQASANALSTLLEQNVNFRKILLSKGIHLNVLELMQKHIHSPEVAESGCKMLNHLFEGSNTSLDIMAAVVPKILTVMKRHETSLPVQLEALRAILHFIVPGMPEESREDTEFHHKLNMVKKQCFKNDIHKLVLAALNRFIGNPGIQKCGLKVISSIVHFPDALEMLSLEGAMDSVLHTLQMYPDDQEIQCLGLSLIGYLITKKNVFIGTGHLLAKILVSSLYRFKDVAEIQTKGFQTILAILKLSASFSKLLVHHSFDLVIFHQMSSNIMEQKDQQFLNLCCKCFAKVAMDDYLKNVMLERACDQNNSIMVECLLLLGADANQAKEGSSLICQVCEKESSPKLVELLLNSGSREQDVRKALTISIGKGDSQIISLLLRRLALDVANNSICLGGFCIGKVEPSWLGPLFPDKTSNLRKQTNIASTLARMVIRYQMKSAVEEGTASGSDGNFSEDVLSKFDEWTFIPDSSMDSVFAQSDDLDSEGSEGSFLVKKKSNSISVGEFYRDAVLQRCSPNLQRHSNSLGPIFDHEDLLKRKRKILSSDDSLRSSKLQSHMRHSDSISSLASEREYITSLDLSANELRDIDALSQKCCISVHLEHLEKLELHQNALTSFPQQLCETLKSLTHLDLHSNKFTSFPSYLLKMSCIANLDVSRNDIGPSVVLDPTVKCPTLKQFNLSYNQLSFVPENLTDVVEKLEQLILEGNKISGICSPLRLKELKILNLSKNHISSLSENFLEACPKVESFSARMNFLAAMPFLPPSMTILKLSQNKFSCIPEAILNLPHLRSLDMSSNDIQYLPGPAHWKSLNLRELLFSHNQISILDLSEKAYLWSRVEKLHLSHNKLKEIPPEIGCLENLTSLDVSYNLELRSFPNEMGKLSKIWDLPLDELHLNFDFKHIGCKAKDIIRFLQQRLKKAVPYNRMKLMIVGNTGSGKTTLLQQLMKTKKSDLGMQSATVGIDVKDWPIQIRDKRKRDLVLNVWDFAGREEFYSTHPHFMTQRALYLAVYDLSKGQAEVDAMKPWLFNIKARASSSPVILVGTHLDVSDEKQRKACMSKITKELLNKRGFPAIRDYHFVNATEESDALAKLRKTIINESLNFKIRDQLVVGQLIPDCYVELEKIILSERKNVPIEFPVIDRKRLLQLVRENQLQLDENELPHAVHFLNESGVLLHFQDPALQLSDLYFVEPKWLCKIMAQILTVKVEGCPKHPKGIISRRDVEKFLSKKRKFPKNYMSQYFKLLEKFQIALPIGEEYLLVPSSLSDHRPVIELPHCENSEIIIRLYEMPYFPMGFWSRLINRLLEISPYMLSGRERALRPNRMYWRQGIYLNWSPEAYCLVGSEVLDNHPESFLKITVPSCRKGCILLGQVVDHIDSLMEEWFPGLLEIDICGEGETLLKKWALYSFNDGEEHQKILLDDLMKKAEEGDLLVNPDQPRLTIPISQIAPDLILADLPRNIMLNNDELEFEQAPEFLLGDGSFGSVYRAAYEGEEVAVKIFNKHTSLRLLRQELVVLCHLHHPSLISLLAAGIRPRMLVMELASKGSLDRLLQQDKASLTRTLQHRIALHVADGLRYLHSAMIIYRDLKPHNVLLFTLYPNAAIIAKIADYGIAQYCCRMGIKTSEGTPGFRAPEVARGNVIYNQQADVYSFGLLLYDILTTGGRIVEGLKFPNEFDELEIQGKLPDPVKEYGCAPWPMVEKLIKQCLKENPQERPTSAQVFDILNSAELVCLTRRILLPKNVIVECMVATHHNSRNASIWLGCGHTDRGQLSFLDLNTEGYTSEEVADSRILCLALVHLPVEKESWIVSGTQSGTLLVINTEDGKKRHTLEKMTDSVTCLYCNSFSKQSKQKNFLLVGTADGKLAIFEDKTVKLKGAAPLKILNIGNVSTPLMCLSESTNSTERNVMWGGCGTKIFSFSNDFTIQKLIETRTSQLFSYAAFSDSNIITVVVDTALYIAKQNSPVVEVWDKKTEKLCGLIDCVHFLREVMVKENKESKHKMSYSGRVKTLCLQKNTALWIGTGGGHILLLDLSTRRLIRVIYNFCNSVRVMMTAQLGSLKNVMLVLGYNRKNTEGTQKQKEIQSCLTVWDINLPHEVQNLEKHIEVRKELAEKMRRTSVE
PROTOCOL_NOTES: Endogenous LRRK2 degradation assay, endogenous gene C-terminally HiBit-tagged in HEK293 cells (Nano-Glo Dual Luciferase)
Format: cell-based
MEASUREMENT_CONDITIONS: endogenous HiBit-tagged LRRK2 in HEK293 cells, 24 hours treatment; read-out: **Endogenous WT Dmax (%)
Protocol: Exemplary Assay for Testing LRRK2 Degradation Driven by Exemplary Hetero-Bifunctional Compounds Designed to Target LRRK2 The assay measures the degradation of LRRK2 in cells where the C-terminus (3′) of the endogenous gene has been tagged with a HiBit sequence in HEK293 cells. […] Day 3—HiBit Assay. […] Fluorescence of each plate was read on a plated reader for the Alamar Blue viability assay. […] The One Glo luciferase mixture was prepared. […] The luminescence of each plate was read on a plate reader. […]

Param readout = Dmax; param system = LRRK2 (endogenous, HiBit tagged) (Homo sapiens, UniProt Q5S007); param query = CC1(Oc2cc3c(-c4cc(N5CCN(C[C@H]6CC[C@H](OC7CCN(c8ccc9c(c8F)CN(C8CCC(=O)NC8=O)C9=O)CC7)CC6)CC5)ncn4)n[nH]c3cn2)CC1 (some centres unmarked) [Compound 258] ; response: value
50 to 70%

Please answer likewise for COc1c(N2CCC(CN3C[C@@H](C)N(CC4CCN(c5cc(-c6n[nH]c7ccc(OC8(C)CC8)cc67)ncn5)CC4)[C@@H](C)C3)CC2)ccc2c1CN(C1CCC(=O)NC1=O)C2=O (some centres unmarked) [Compound 287]
50 to 70%

Please answer likewise for CC1(Oc2cc3c(-c4cc(N5CCC(CN6CCN(CC7CCN(c8ccc9c(c8F)CN(C8CCC(=O)NC8=O)C9=O)CC7)C(C)(C)C6)CC5)ncn4)n[nH]c3cn2)CC1 (centres unmarked) [Compound 270]
≥ 70%

Please answer likewise for C[C@@H]1CN(CC2CCN(c3cc(-c4n[nH]c5ccc(OC6(C)CC6)cc45)ncn3)CC2)C[C@H](C)N1CC1CCN(c2ccc3c(c2F)CN(C2CCC(=O)NC2=O)C3=O)CC1 (some centres unmarked) [Compound 307]
50 to 70%

Please answer likewise for CC1(Oc2cc3c(-c4cc(N5CCN(C[C@H]6CC[C@H](CN7CCN(c8ccc9c(c8F)CN(C8CCC(=O)NC8=O)C9=O)CC7)CC6)CC5)ncn4)n[nH]c3cn2)CC1 (some centres unmarked) [Compound 267]
≥ 70%

----------
SYSTEM: G2019S LRRK2 (Homo sapiens, UniProt Q5S007, G2019S)
Construct: expressed in transfected cells; host or cells: HEK293 (ATCC CRL-1573), transient transfection, mammalian expression vector with ubiquitin promoter
Sequence (Q5S007 whole entry G2019S): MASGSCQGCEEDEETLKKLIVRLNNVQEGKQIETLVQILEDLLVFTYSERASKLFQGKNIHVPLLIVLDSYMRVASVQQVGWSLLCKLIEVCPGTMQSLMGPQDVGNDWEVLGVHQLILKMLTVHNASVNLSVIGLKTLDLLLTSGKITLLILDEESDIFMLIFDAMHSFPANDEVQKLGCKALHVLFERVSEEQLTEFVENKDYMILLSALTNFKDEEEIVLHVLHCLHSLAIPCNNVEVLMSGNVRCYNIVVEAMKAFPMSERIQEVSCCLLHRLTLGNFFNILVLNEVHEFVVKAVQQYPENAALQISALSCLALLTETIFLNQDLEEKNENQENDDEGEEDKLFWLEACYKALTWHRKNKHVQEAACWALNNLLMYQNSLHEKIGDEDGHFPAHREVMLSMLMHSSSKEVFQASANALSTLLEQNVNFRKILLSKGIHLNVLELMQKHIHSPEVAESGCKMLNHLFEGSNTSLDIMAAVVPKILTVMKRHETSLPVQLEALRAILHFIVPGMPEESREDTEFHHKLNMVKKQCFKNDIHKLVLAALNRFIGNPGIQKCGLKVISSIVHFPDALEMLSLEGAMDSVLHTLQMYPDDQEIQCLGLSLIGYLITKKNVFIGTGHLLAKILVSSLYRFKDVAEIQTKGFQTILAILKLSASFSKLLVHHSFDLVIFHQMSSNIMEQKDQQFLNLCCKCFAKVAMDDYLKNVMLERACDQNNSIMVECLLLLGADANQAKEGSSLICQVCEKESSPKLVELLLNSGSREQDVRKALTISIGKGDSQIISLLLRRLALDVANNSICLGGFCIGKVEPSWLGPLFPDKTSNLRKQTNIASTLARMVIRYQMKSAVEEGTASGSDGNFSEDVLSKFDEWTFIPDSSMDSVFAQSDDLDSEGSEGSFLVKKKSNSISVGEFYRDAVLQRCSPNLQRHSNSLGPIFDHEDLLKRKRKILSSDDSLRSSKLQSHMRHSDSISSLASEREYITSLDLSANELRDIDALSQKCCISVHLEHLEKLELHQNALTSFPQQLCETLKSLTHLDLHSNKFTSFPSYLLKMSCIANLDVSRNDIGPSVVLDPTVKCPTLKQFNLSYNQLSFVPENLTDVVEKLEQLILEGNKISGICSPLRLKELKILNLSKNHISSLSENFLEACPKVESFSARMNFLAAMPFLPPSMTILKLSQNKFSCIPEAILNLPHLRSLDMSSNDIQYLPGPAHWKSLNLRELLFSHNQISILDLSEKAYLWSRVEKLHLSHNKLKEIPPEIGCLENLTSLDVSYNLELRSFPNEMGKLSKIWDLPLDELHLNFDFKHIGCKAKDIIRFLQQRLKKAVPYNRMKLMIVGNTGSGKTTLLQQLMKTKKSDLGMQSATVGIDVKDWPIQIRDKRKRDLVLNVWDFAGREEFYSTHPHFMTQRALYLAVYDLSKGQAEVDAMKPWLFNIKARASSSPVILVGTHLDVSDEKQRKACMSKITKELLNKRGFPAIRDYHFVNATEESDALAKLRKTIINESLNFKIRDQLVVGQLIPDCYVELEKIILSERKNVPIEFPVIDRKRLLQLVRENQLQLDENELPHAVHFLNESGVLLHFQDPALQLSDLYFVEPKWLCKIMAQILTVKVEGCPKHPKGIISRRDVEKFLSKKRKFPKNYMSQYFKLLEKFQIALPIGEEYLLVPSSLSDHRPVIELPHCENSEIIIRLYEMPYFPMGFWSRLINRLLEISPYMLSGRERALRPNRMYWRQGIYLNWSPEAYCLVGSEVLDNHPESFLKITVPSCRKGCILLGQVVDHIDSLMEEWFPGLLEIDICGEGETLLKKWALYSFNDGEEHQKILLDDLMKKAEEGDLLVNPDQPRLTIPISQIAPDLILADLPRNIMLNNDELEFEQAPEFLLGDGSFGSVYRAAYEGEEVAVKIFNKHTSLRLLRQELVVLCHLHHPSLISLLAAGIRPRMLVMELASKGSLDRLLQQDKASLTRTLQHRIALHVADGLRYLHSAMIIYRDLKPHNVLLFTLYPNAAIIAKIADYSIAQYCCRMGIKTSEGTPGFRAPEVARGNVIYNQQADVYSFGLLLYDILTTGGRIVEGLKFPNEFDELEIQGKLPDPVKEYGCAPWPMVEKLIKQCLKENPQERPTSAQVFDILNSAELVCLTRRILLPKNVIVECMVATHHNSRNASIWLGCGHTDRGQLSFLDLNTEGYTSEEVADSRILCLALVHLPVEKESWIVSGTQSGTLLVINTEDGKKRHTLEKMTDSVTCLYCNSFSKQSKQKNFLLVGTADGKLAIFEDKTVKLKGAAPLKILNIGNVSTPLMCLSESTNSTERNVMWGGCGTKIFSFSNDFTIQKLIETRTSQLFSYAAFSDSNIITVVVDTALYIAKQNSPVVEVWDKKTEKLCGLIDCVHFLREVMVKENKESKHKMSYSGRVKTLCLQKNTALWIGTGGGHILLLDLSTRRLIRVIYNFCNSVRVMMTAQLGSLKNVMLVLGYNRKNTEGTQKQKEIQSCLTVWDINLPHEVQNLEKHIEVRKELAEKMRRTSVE
PROTOCOL_NOTES: LRRK2 degradation assay, HiBit-tagged G2019S LRRK2 expressed from plasmid in HEK293 cells (Nano-Glo Dual-Luciferase)
Assay type: cell-based
MEASUREMENT_CONDITIONS: HiBit-tagged G2019S LRRK2, HEK293 cells, 24 hours
Provide the recorded Dmax for the entries that follow.

Consider the compound shown here: CC1(Oc2ccc3n[nH]c(-c4cc(N5CCN(Cc6ccc(CN7CCN(c8ccc9c(c8)C(=O)N(C8CCC(=O)NC8=O)C9=O)CC7)cc6)CC5)ncn4)c3c2)CC1 (stereo not shown) What is its recorded Dmax?
50 to 70%

Please answer likewise for CC1(Oc2ccc3[nH]nc(-c4cc(N5CC[C@H](CN6CCN(CC7CCN(c8ccc9c(c8)C(=O)N(C8CCC(=O)NC8=O)C9=O)CC7)CC6)C5)ncn4)c3c2)CC1 (stereo partly shown)
< 50%

Please answer likewise for CC1(Oc2ccc3[nH]nc(-c4cc(N5CCO[C@@H](CCN6CCN(CC7CCN(c8ccc9c(c8)C(=O)N(C8CCC(=O)NC8=O)C9=O)CC7)CC6)C5)ncn4)c3c2)CC1 (single isomer, unassigned)
50 to 70%

Please answer likewise for CC1(Oc2ccc3[nH]nc(-c4cc(N5CCC(CN6CC7(CN(CC8CCN(c9ccc%10c(c9)C(=O)N(C9CCC(=O)NC9=O)C%10=O)CC8)C7)C6)CC5)ncn4)c3c2)CC1 (stereo not shown)
50 to 70%

Please answer likewise for CC1(Oc2ccc3[nH]nc(-c4cc(N5CCO[C@H](CN6CCN(CC7CCN(c8ccc9c(c8)C(=O)N(C8CCC(=O)NC8=O)C9=O)CC7)CC6)C5)ncn4)c3c2)CC1 (stereo partly shown)
< 50%

Please answer likewise for CC1(Oc2ccc3[nH]nc(-c4cc(N5CCO[C@H](CCN6CCN(CC7CCN(c8ccc9c(c8)C(=O)N(C8CCC(=O)NC8=O)C9=O)CC7)CC6)C5)ncn4)c3c2)CC1 (stereo partly shown)
50 to 70%

Please answer likewise for CC1(Oc2ccc3n[nH]c(-c4cc(N5CCN(Cc6ccc(CN7CCN(c8ccc9c(c8)C(=O)N(C8CCC(=O)NC8=O)C9=O)CC7)nn6)CC5)ncn4)c3c2)CC1 (stereo not shown)
50 to 70%

----------
SYSTEM: LRRK2 (endogenous, HiBit tagged) (Homo sapiens, UniProt Q5S007)
Construct: endogenous in cells; host or cells: HEK293 cells with HiBit knock-in at the endogenous LRRK2 locus, stably expressing firefly luciferase
PROTOCOL_NOTES: Endogenous LRRK2 degradation assay, endogenous gene C-terminally HiBit-tagged in HEK293 cells (Nano-Glo Dual Luciferase)
Format: cell-based
MEASUREMENT_CONDITIONS: endogenous HiBit-tagged LRRK2 in HEK293 cells, 24 hours; read-out: *Endogenous WT DC50
Provide the recorded DC50 for the entries that follow.

Consider the compound shown here: C[C@H]1CN(c2cc(-c3n[nH]c4ccc(OC5(C)CC5)cc34)ncn2)CCN1CC1(F)CCN(CC2CCN(c3ccc4c(c3)C(=O)N(C3CCC(=O)NC3=O)C4=O)CC2)CC1 (stereo partly drawn) [Compound 69] What is its recorded DC50?
< 10 nM

Please answer likewise for C[C@H]1CN(c2cc(-c3[nH]nc4ccc(OC5(C)CC5)cc34)ncn2)CCN1CC(=O)N1CCC(CN2CCN(c3ccc4c(c3)C(=O)N(C3CCC(=O)NC3=O)C4=O)CC2)CC1 (stereo partly drawn) [Compound 59]
< 10 nM

Please answer likewise for C[C@H]1CN(c2cc(-c3[nH]nc4ccc(OC5(C)CC5)cc34)ncn2)CCN1CC1CCN(CC2CCN(c3cccc4c3C(=O)N(C3CCC(=O)NC3=O)C4=O)CC2)CC1 (stereo partly drawn) [Compound 137]
10 to 50 nM

----------
SYSTEM: LRRK2 (endogenous, HiBit tagged) (Homo sapiens, UniProt Q5S007)
Construct: endogenous in cells; host or cells: HEK293 cells with HiBit knock-in at the endogenous LRRK2 locus, stably expressing firefly luciferase
PROTOCOL_NOTES: Endogenous LRRK2 degradation assay, endogenous gene C-terminally HiBit-tagged in HEK293 cells (Nano-Glo Dual Luciferase)
Type: cell-based
MEASUREMENT_CONDITIONS: endogenous HiBit-tagged LRRK2, HEK293 cells, 24 hours; read-out: **Endogenous WT Dmax (%)
Provide the recorded Dmax for the entries that follow.

Param readout = Dmax; param system = LRRK2 (endogenous, HiBit tagged) (Homo sapiens, UniProt Q5S007); param query = CC1(Oc2ccc3[nH]nc(-c4cc(N5CCC(CN6CCN(CC7CCN(c8cc9c(cc8F)C(=O)N(C8CCC(=O)NC8=O)C9)CC7)CC6)CC5)ncn4)c3c2)CC1 (centres unmarked) ; response: value
≥ 70%

Please answer likewise for COc1cc2c(cc1N1CCC(CN3CCN(CC4CCN(c5cc(-c6n[nH]c7ccc(OC8(C)CC8)cc67)ncn5)CC4)CC3)CC1)CN(C1CCC(=O)NC1=O)C2=O (centres unmarked)
≥ 70%

Please answer likewise for CC1(Oc2ccc3[nH]nc(-c4cc(N5CCN(CC6(F)CCN(CC7CCN(c8cccc9c8CN(C8CCC(=O)NC8=O)C9=O)CC7)CC6)CC5)ncn4)c3c2)CC1 (centres unmarked)
50 to 70%

Please answer likewise for CC1(Oc2ccc3[nH]nc(-c4cc(N5CCC(CN6CCC(F)(CN7CCN(c8cc9c(cc8F)C(=O)N(C8CCC(=O)NC8=O)C9)CC7)CC6)CC5)ncn4)c3c2)CC1 (centres unmarked)
≥ 70%

Please answer likewise for CC1(Oc2cc3c(-c4cc(N5CCC(CN6CCN(CC7CCN(c8ccc9c(c8F)CN(C8CCC(=O)NC8=O)C9=O)CC7)CC6)CC5)ncn4)n[nH]c3cn2)CC1 (centres unmarked)
≥ 70%

----------
SYSTEM: LRRK2 (endogenous, HiBit tagged) (Homo sapiens)
Construct: endogenous in cells; host or cells: HEK293 cells with HiBit knock-in at the endogenous LRRK2 locus, stably expressing firefly luciferase
PROTOCOL_NOTES: Endogenous LRRK2 degradation assay, endogenous gene C-terminally HiBit-tagged in HEK293 cells (Nano-Glo Dual Luciferase)
Format: cell-based
MEASUREMENT_CONDITIONS: endogenous HiBit-tagged LRRK2, HEK293 cells, 24 hours; read-out: **Endogenous WT Dmax (%)
ENDPOINT_NAME: Dmax

Consider the molecule shown here: CC1(Oc2ccc3n[nH]c(-c4cc(N5CC(OCC6(F)CCN(CC7CCN(c8ccc9c(c8F)CN(C8CCC(=O)NC8=O)C9=O)CC7)CC6)C5)ncn4)c3c2)CC1 (centres unmarked) [Compound 200] What is its recorded Dmax?
≥ 70%

Please answer likewise for CC1(Oc2ccc3[nH]nc(-c4ccnc(N5CC(CC6CCN(CC7CCN(c8ccc9c(c8)C(=O)N(C8CCC(=O)NC8=O)C9=O)CC7)CC6)C5)c4)c3c2)CC1 (centres unmarked) [Compound 160]
≥ 70%

Please answer likewise for CC1(Oc2cc3c(-c4cc(N5CCN(CC6(F)CCN(CC7CCN(c8ccc9c(c8F)CN(C8CCC(=O)NC8=O)C9=O)CC7)CC6)CC5)ncn4)n[nH]c3cc2F)CC1 (centres unmarked) [Compound 189]
≥ 70%

Please answer likewise for C[C@H]1CN(c2cc(-c3[nH]nc4cc(F)c(OC5(C)CC5)cc34)ncn2)CCN1CC1(F)CCN(CC2CCN(c3cc4c(cc3F)C(=O)N(C3CCC(=O)NC3=O)C4)CC2)CC1 (some centres unmarked) [Compound 197]
≥ 70%

Please answer likewise for CC1(Oc2cc3c(-c4cc(N5CCC(CN6CCN(CC7CCN(c8ccc9c(c8F)CN(C8CCC(=O)NC8=O)C9=O)CC7)CC6)CC5)ncn4)n[nH]c3cc2F)CC1 (centres unmarked) [Compound 186]
≥ 70%
